molecular target: H1N1 A/New Caledonia/20/1999 hemagglutinin ectodomain, biotinylated HA0 (influenza A virus A/New …, biotin on the BirA site); assay: SPR
Positions of bridges follow the written chain, without caps; N, C: chain ends. Non-standard residues stand in square brackets, D forms with d. No end group written: not given here.
I'd appreciate it if you marked entries yes when Kd is lower than 800 nM and no when it is not.

Solved entries:
binder: PPLYEDPLGVAGGMG (also: one Pro of the Pro-Pro template is D, which not given here, cyclic peptide, ring closure not given here) [cyclic peptide CP3]
qualitative label: no

binder: PGVSLYEDPLGVAGGMGVY (also: cyclic peptide, ring closure not given here) [cyclic peptide CP4]
qualitative label: yes

binder: P[dP]SLYEDPLGVAGGMGV (also: cyclic peptide, ring closure not given here) [cyclic peptide CP2]
qualitative label: no

binder: CLYRDPLGVAGGMGC (disulfide 1-15) [cyclic peptide CP8]
qualitative label: no

In: Please let me know if [dP]PVSLYEDPLGVAGGMGVY (also: cyclic peptide, ring closure not given here) [cyclic peptide CP1] shows Kd below 800 nM.
Out: yes
